Origin of the recorded values: ChEMBL document CHEMBL1909046

Measurement target: Adenosine receptor A3 (Homo sapiens, UniProt P0DMS8); note: in other assays of this panel Not Active means under 50% inhibition at 10 µM;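 note: radioligand binding assay with AB-MECA serving as the labeled ligand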
Sequence (P0DMS8 whole entry): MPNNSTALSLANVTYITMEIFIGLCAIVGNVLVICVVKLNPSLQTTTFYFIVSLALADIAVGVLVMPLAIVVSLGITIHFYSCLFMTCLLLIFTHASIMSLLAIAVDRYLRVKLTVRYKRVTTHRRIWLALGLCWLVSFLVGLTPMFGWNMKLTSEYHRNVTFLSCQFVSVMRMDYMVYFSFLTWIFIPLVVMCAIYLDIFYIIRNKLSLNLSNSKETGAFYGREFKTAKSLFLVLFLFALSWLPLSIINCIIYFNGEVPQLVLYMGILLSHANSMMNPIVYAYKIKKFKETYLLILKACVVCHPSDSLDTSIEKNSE
Type: cell membranes, CHO-K1, Membrane
Conditions: cho-k1
Attribute measured: IC50

# example entries with known answers
>>> result("COCCc1ccc(OCC(O)CNC(C)C)cc1 (stereo unspecified)")
"Not Active"
>>> result("CC1=C2C(=CO[C@H](C)[C@H]2C)C(O)=C(C(=O)O)C1=O")
"Not Active"
>>> result("CC(C)(C)NC(=O)[C@@H]1C[C@@H]2CCCC[C@@H]2CN1C[C@@H](O)[C@H](Cc1ccccc1)NC(=O)[C@H](CC(N)=O)NC(=O)c1ccc2ccccc2n1")
"Not Active"
>>> result("CN(C)c1nc(N(C)C)nc(N(C)C)n1")
"Not Active"
>>> result("Cc1oncc1C(=O)Nc1ccc(C(F)(F)F)cc1 [LEFLUNOMIDE]")
"Not Active"

Input line: Requested read-out: IC50. Entry: COc1nc(C)nc(Cl)c1NC1=NCCN1
Output line: Not Active

---

Measurement target: Alpha-1A adrenergic receptor (Rattus norvegicus)
Sequence (P43140 whole entry): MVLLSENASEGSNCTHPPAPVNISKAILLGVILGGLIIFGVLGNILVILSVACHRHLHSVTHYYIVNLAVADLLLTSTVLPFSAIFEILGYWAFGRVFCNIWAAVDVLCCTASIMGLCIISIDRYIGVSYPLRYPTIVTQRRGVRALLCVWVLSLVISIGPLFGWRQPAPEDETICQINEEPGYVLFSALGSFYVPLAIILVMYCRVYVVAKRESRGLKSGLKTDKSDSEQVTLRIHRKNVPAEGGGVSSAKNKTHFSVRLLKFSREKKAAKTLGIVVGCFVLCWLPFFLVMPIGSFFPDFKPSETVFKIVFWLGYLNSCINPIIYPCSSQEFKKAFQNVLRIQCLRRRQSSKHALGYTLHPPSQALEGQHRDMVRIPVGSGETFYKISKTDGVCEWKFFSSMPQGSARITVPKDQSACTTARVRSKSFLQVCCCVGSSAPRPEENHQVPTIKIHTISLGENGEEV
Method summary: DRUGMATRIX: Alpha-1A adrenergic receptor radioligand binding (ligand: prazosin)
Format: cell membranes, Wistar, Submaxillary gland, Membrane
Conditions: Not Active = under 50% inhibition at 10 µM; read-out: Ki
Attribute measured: Ki (nM)
Entry rule: numbers only, all in nM.

Observe how each entry below is paired with its result.
>>> quantitative_readout("O=C(CCCN1CC=C(n2c(=O)[nH]c3ccccc32)CC1)c1ccc(F)cc1 [DROPERIDOL]")
0.669
>>> quantitative_readout("CC(C)[C@@]1(NC(=O)[C@@H]2C[C@@H]3c4cccc5[nH]cc(c45)C[C@H]3N(C)C2)O[C@@]2(O)[C@@H]3CCCN3C(=O)[C@H](Cc3ccccc3)N2C1=O.CS(=O)(=O)O [DIHYDROERGOCRISTINE MESYLATE]")
0.656

Could you now consider this next compound?
Input line: Form entry - test system: Alpha-1A adrenergic receptor (Rattus norvegicus); read-out: Ki; compound: CCCN1C[C@H](CSC)C[C@@H]2c3cccc4[nH]cc(c34)C[C@H]21 [PERGOLIDE]
Output line: 781

---

Listing: Ki of selected compounds
Method summary: DRUGMATRIX: Sigma2 radioligand binding (ligand: [3H] Ifenprodil)
Type: cell membranes, Rattus norvegicus, Wistar, Brain, Membrane
Conditions: Not Active = under 50% inhibition at 10 µM; read-out: Ki

Example compounds with recorded Ki:
>>> result("CN(C)CCCN1c2ccccc2Sc2ccc(Cl)cc21")
"1670 nM"
>>> result("CN(C)CCCN1c2ccccc2Sc2ccccc21")
"1560 nM"
>>> result("CC(NC(C)(C)C)C(=O)c1cccc(Cl)c1 (configuration not stated)")
"1420 nM"
>>> result("CC(C)N1CCN(c2ccc(OCC3COC(Cn4cncn4)(c4ccc(Cl)cc4Cl)O3)cc2)CC1 (configuration not stated)")
"195 nM"
>>> result("c1ccc([C@H]2CN3CCSC3=N2)cc1")
"2700 nM"
>>> result("CN(Cc1ccc(C(C)(C)C)cc1)Cc1cccc2ccccc12")
"157 nM"

Kindly review the next compound as well.
Input line: Given the entry O=C(CCCN1CC=C(n2c(=O)[nH]c3ccccc32)CC1)c1ccc(F)cc1 , report its measured Ki.
Output line: 2020 nM

---

Measurement target: 5-hydroxytryptamine receptor 4 (Cavia porcellus); note: in other assays of this panel Not Active means under 50% inhibition at 10 µM
Sequence (O70528 whole entry): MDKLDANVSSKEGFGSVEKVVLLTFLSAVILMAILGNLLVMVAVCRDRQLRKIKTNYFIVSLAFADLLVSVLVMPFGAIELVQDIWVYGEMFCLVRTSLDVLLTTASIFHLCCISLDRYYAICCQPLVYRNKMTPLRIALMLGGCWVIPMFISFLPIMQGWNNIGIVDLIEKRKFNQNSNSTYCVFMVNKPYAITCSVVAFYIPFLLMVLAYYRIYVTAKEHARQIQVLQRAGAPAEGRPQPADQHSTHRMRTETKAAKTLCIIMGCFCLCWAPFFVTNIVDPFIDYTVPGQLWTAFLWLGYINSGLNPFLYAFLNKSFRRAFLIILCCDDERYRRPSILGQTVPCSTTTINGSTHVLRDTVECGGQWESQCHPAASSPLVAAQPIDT
Format: cell membranes, Dunkin-Hartley, Striatum, Membrane
Conditions: read-out: Ki
Below, each entry is listed alongside its reported pKi.
Scale: pKi equals -log10([C]), with [C] in mol/L.

Input line: pKi lookup needed for CC(C)[C@@]1(NC(=O)[C@@H]2C[C@@H]3c4cccc5[nH]cc(c45)C[C@H]3N(C)C2)O[C@@]2(O)[C@@H]3CCCN3C(=O)[C@H](Cc3ccccc3)N2C1=O.CS(=O)(=O)O [DIHYDROERGOCRISTINE MESYLATE] , thanks.
Output line: 6.09

Input line: Quick one: pKi of O=C(CCCN1CC=C(n2c(=O)[nH]c3ccccc32)CC1)c1ccc(F)cc1 [DROPERIDOL] ?
Output line: 6.20

Input line: Param item = COc1cc2nc(N3CCN(C(=O)C4COc5ccccc5O4)CC3)nc(N)c2cc1OC (stereo unspecified) [DOXAZOSIN] ; retrieve measured pKi.
Output line: 6.90

Input line: GET /values?readout=pKi&item= CC(C)N1CCN(c2ccc(OCC3COC(Cn4cncn4)(c4ccc(Cl)cc4Cl)O3)cc2)CC1 (stereo unspecified) [TERCONAZOLE]
Output line: 5.61

Input line: I have this compound here, CN1CCN(CCCN2c3ccccc3Sc3ccc(Cl)cc32)CC1 [PROCHLORPERAZINE] , and I need its recorded pKi.
Output line: 6.71

Input line: Give the measured pKi of CC(C)C(=O)Nc1ccc([N+](=O)[O-])c(C(F)(F)F)c1 [FLUTAMIDE] .
Output line: 5.65
